- PROTOCOL_SUMMARY: Primary qHTS for Huh7 cytotoxicity: counterscreen for inhibitors of MERS-S pseudotyped particle cell entry (AID 1479147)
- CONDITION_SET: cell viability read-out; series mostly up to 57.1 µM
Results filed as inconclusive are left out. Activity calls are given as the source filed them. The call rests on the fitted dose curve.
REPORTED_ENDPOINT: outcome

COMPOUND	ENDPOINT_RESULT
CC1(C)C2CC[C@]3(C)C(C(=O)C=C4[C@@H]5C[C@@](C)(C(=O)O)CC[C@]5(C)CC[C@]43C)[C@@]2(C)CC[C@@H]1O (stereo partly drawn)	inactive
CC(C)(C)NCC(O)COc1ccccc1C#N (stereo not drawn)	inactive
C=CC1=C(C(=O)O)N2C(=O)[C@@H](NC(=O)/C(=N\OCC(=O)O)c3csc(N)n3)[C@H]2SC1	inactive
C/C(=C(/CCO)SSCC1CCCO1)N(C=O)Cc1cnc(C)nc1N (stereo not drawn)	inactive
Cc1cc(C#N)cc(C)c1Oc1nc(Nc2ccc(C#N)cc2)nc(N)c1Br	inactive
FCOC(C(F)(F)F)C(F)(F)F	inactive
CS(=O)(=O)OCC(O)C(O)COS(C)(=O)=O (stereo not drawn)	inactive
O=C(O)C1CCc2cc(C3CCCCC3)c(Cl)cc21 (stereo not drawn)	inactive
CC(C)C[C@H]1C(=O)N2CCC[C@H]2[C@]2(O)O[C@](NC(=O)[C@@H]3C=C4c5cccc6[nH]c(Br)c(c56)CC4N(C)C3)(C(C)C)C(=O)N12 (stereo partly drawn)	inactive
C#C[C@]1(O)CC[C@H]2[C@@H]3CCC4=CC(=O)CCC4[C@H]3CC[C@@]21CC (stereo partly drawn)	inactive
CN(C)CC(=O)O	inactive
Cc1ccc(Sc2ccccc2N2CCNCC2)c(C)c1	inactive
C=CCN1CC[C@]23c4c5ccc(O)c4O[C@H]2[C@@H](OCCOCCOCCOCCOCCOCCOCCOC)CC[C@@]3(O)[C@H]1C5	inactive
CCN(CC)CCOC(=O)c1cccnc1	inactive
COCC(=O)Nc1cc(Sc2ccccc2)ccc1N=C(NC(=O)OC)NC(=O)OC	inactive
C=C(C)CNc1ccc(C(C)C(=O)O)cc1 (stereo not drawn)	inactive
C[N+](C)(CCCCCC[N+](C)(C)C1c2ccccc2-c2ccccc21)C1c2ccccc2-c2ccccc21	inactive
CNCC(O)c1ccc(OC(=O)C(C)(C)C)c(OC(=O)C(C)(C)C)c1 (stereo not drawn)	inactive
CCOc1nc2cccc(C(=O)OC(C)OC(=O)OC3CCCCC3)c2n1Cc1ccc(-c2ccccc2-c2nn[nH]n2)cc1 (stereo not drawn)	inactive
COc1nc2ccc(Br)cc2cc1[C@@H](c1ccccc1)[C@@](O)(CCN(C)C)c1cccc2ccccc12	inactive
C#C[C@]1(O)CC[C@H]2[C@@H]3CCC4=CC(=O)CC[C@@H]4[C@H]3C(=C)C[C@@]21CC	inactive
CCCCCc1ccc(C)cc1O	inactive
O=C(O)[C@H]1OC(O)[C@H](O)[C@@H](O)[C@@H]1O (stereo partly drawn)	inactive
CC(C)(C)C(=O)OCC(=O)[C@H]1CC[C@H]2[C@@H]3CCC4=CC(=O)CC[C@]4(C)[C@H]3CC[C@]12C	inactive
Cc1cnc(C(=O)N[C@H]2CCCCC/C=C\[C@H]3C[C@@]3(C(=O)NS(=O)(=O)C3CC3)NC(=O)[C@@H]3C[C@@H](Oc4nc5ccccc5c5ccccc45)CN3C2=O)cn1	inactive
CC(=O)O[C@H]1CC[C@@]2(C)C(=CC[C@H]3[C@@H]4CC[C@H](C(C)=O)[C@@]4(C)CC[C@@H]32)C1	inactive
CC(C)(CO)[C@@H](O)C(=O)NCCC(=O)NCCSSCCNC(=O)CCNC(=O)[C@H](O)C(C)(C)CO	inactive
Cc1ncc(COP(=O)(O)O)c(C)c1O	inactive
CCCC1C(=O)N2C(N(C)C)=Nc3ccc(C)cc3N2C1=O (stereo not drawn)	inactive
C[N@+]12CCCC[C@@H]1CCC(=C(c1cccs1)c1cccs1)C2	inactive
NCCC[C@H](NC(=O)[C@@H]1CCCN1C(=O)[C@@H]1CSSC[C@H](N)C(=O)N[C@@H](Cc2ccc(O)cc2)C(=O)N[C@@H](Cc2ccccc2)C(=O)N[C@@H](CCC(N)=O)C(=O)N[C@@H](CC(N)=O)C(=O)N1)C(=O)NCC(N)=O	inactive
N[C@@H](C(=O)N[C@@H]1C(=O)N2C(C(=O)O)=C(Cl)CC[C@H]12)c1ccccc1	inactive
Cc1ccc(C2(O)CCN(CCCC(=O)c3ccc(F)cc3)CC2)cc1	inactive
O=S(O)CNc1ccc(S(=O)(=O)c2ccc(NCS(=O)O)cc2)cc1	inactive
CN1CCc2c(c3ccccc3n2Cc2ccccc2)C1	inactive
CC1(C)C(/C=C/C=C/C=C/C=C2/N(CCCCS(=O)(=O)O)c3ccc4ccccc4c3C2(C)C)=[N+](CCCCS(=O)(=O)[O-])c2ccc3ccccc3c21	inactive
CNC(=O)OCc1cccc(COC(=O)NC)n1	inactive
O=C(Nc1ccc(O)cc1)c1ccccc1O	inactive

====

Here the recorded max response is given for each entry.
- PROTOCOL_SUMMARY: qHTS Assay for Lipid Storage Modulators (AID 1519)
- CONDITION_SET: Drosophila S3 cells, BODIPY lipid droplet/cell ratio, laser cytometry; measured here: lipid channel max response; cells loaded with oleic acid
- Method: NIH Molecular Libraries Probe Production Centers Network [MLPCN] NIH Chemical Genomics Center [NCGC] Assay Submitter (PI): Beller, Mathias; Max-Planck-Institut fur Biophysikalische Chemie […] We dispensed 4 uL of cells at 1.25 x 10^6 cells/mL into LoBase Aurora COC 1,536-well plates (black walled, clear bottom) with a bottle-valve solenoid-based dispenser (Aurora) to obtain 5,000 cells/well. […] The ratio of the total intensity in PMT channel 1 over total intensity of channel 3 was also calculated. […]
Records with an inconclusive call do not appear.
REPORTED_ENDPOINT: max response (%)

COMPOUND	ENDPOINT_RESULT
COc1cc(C2c3cc4c(cc3C(O)C3COC(=O)C23)OCO4)cc(OC)c1O (stereo not given)	6.73
COc1cc2c(cc1OC)[C@@]13CCN4CC5=CCOC6CC(=O)N2C1[C@H]6[C@@H]5C[C@@H]43 (stereo not given in full)	26.2
c1cncc([C@H]2CCCCN2)c1	19.6
CCN1C[C@@]2(C)CC[C@@H](OC)[C@@]34C2C(O)[C@@]2(OCO[C@]25CC(OC)C2C[C@@]3(O)C5C2O)C14 (stereo not given in full)	4.66
N#CC(O[C@@H]1OC(COC2OC(CO)C(O)C(O)[C@@H]2O)C(O)C(O)C1O)c1ccccc1 (stereo not given in full)	5.27

====

- System: CP192
- PROTOCOL_SUMMARY: qHTS profiling for inhibitors of Plasmodium falciparum proliferation (AID 504749); further: nearly all actives have a fitted effect of over 60% in size
- CONDITION_SET: P. falciparum in erythrocytes, SYBR Green DNA, 72 h; series mostly up to 28.7 µM
Records with an inconclusive call do not appear. The source made the active and inactive calls. Calls follow the shape of the dose curve; as a rule, active = well fitted inhibition curve with a large enough effect; inconclusive = small, poorly fitted or top-dose-only effect; inactive = flat fitted curve, though single readings scatter.
REPORTED_ENDPOINT: outcome

MOLECULE	ENDPOINT_RESULT
CC(C)N(CC[C@@](C(N)=O)(c1ccccc1)c1ccccn1)C(C)C	inactive
C[C@]12CC[C@H](O)C[C@H]1CCC1C2CC[C@]2(C)[C@@H](c3ccc(=O)oc3)C[C@H]3O[C@]132 (stereo partly drawn)	inactive
CC(=O)OC1C[C@H](O[C@@H]2C(O)C[C@H](O[C@@H]3C(O)C[C@@H](OC4CC[C@]5(C)C(CCC6C5CC(O)[C@@]5(C)C(C7=CC(=O)OC7)CC[C@@]65O)C4)OC3C)OC2C)O[C@H](C)[C@H]1O[C@H]1OC(CO)C(O)C(O)C1O (stereo partly drawn)	inactive

====

- Tested on: Dd2
- PROTOCOL_SUMMARY: qHTS profiling for inhibitors of Plasmodium falciparum proliferation (AID 504749); further: nearly all actives have a fitted effect of over 60% in size
- CONDITION_SET: P. falciparum in erythrocytes, SYBR Green DNA, 72 h; series mostly up to 28.7 µM
Results filed as inconclusive are left out. Activity calls are given as the source filed them. Calls follow the shape of the dose curve; as a rule, active = well fitted inhibition curve with a large enough effect; inconclusive = small, poorly fitted or top-dose-only effect; inactive = flat fitted curve, though single readings scatter.
Possible outcomes: YES for active, NO for inactive

COMPOUND	LABEL_CLASS
C#CCN(C)[C@@H](C)Cc1ccccc1	NO
Clc1ccc([C@@H](OCCN2CCCCC2)c2ccccc2)cc1	YES
CC[C@@]1(c2ccc(N)cc2)CCC(=O)NC1=O	NO
CC(C)N(CC[C@@](C(N)=O)(c1ccccc1)c1ccccn1)C(C)C	NO
CNC(C)[C@@H](O)c1ccccc1 (stereo not given in full)	NO
CC(=O)OC1C[C@H](O[C@@H]2C(O)C[C@H](O[C@@H]3C(O)C[C@@H](OC4CC[C@]5(C)C(CCC6C5CC(O)[C@@]5(C)C(C7=CC(=O)OC7)CC[C@@]65O)C4)OC3C)OC2C)O[C@H](C)[C@H]1O[C@H]1OC(CO)C(O)C(O)C1O (stereo not given in full)	NO
C[C@H]1CN(C2CCC(C#N)(c3ccc(F)cc3)CC2)CC[C@@]1(C(=O)O)c1ccccc1 (stereo not given in full)	NO
N[C@H]1C[C@H]1c1ccccc1	NO
C[C@]12CC[C@H](O)CC1=CCC1C2CC[C@]2(C)C(=O)CC[C@@H]12 (stereo not given in full)	NO
CNC(C)[C@@H](O)c1ccc(O)cc1 (stereo not given in full)	NO
